Where do these numbers come from? They come from the Human Domainome abundance scans (Beltran et al. 2025).

B1: Glucocorticoid receptor, residues 419 to 494; numbered along this chain, P04150 (parent)
chain: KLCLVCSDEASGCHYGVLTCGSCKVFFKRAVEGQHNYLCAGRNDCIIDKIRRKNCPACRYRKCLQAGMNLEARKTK

Variants of: B1
assay-method-text: abundance fitness (aPCA) (normalised: wild type 0, dead -1); higher = more abundant; growth selection in yeast, the domain comes from the species named
test-settings: Homo sapiens
class 1 means recorded abundance fitness is -0.1 or above; class 0 means it is below -0.1.

Worked cases, answers included:
chain	class-label
KLCLVCSDEASGCHYGVLTCGSCKVFFKRAVEGQHNYLCAGRNDCIIDKIRRKNQPACRYRKCLQAGMNLEARKTK [C55Q]	class 0
KLCLVCSDEASGCHYGVLTCGSCKVFFKAAVEGQHNYLCAGRNDCIIDKIRRKNCPACRYRKCLQAGMNLEARKTK [R29A]	class 1
KLCLVCSDEASGCHYGVLTCGSCKVFFKRAVECQHNYLCAGRNDCIIDKIRRKNCPACRYRKCLQAGMNLEARKTK [G33C]	class 0
KLCLVCSDEASGCHYGVLTCGSCKVFFKRAVEGQHNYLCAGRNDCIIDKIRRKNCPLCRYRKCLQAGMNLEARKTK [A57L]	class 0
KLCLVCSDEASGCHYGVLTCGSCKVFFKRAVEGQHNYLCAGRNDCIIDKIRRKNCPACRYRKCLQAGMNLKARKTK [E71K]	class 1
KLCLVCSDEASGCHYGVLTCGSCKVFGKRAVEGQHNYLCAGRNDCIIDKIRRKNCPACRYRKCLQAGMNLEARKTK [F27G]	class 0
KLCLVCSDEASGCHYGVLTCGSCKVFFKRAVEGQHNYLCAGRNDCIIDKIRRKNCPACRYRKELQAGMNLEARKTK [C63E]	class 0
KLCLVCSDEASGCHYGVLTCGSCKVFFKRAVEGQHNYLCAQRNDCIIDKIRRKNCPACRYRKCLQAGMNLEARKTK [G41Q]	class 1

Qu. Please check the record KLCLVCSDEASGCHYGVLTCGSCKVFFKRAVEGQHNYLCAGRNDCIIDKIRRKNCPACRYRKCLQAQMNLEARKTK [G67Q] and state if its abundance fitness is at or above -0.1.
Ans. class 0

Qu. Please check the record KLCLVCSDEASGCHYGVLTCGSCKVFFKRAVEGQHNYLCAGRNDCIIDCIRRKNCPACRYRKCLQAGMNLEARKTK [K49C] and state if its abundance fitness is at or above -0.1.
Ans. class 1

Qu. Please check the record KLCLVCSDEASGCHYGVLRCGSCKVFFKRAVEGQHNYLCAGRNDCIIDKIRRKNCPACRYRKCLQAGMNLEARKTK [T19R] and state if its abundance fitness is at or above -0.1.
Ans. class 0

Qu. Please check the record KLCLVCSDEASGCHAGVLTCGSCKVFFKRAVEGQHNYLCAGRNDCIIDKIRRKNCPACRYRKCLQAGMNLEARKTK [Y15A] and state if its abundance fitness is at or above -0.1.
Ans. class 1

Qu. Please check the record KLCLVCSDEASGCHYGVLTCGSCKVFFKRAVEGQHNTLCAGRNDCIIDKIRRKNCPACRYRKCLQAGMNLEARKTK [Y37T] and state if its abundance fitness is at or above -0.1.
Ans. class 1

Qu. Please check the record KLCLVCSDEASGCHYGVLTCGSCKVFFKRAVEGQHNYLCRGRNDCIIDKIRRKNCPACRYRKCLQAGMNLEARKTK [A40R] and state if its abundance fitness is at or above -0.1.
Ans. class 1
